System: TK-10 renal
MEASUREMENT PROTOCOL: NCI-60 one-dose screen, 48 h (100 = growth as untreated, 0 = no growth, -100 = all killed)
REPORTED CONDITIONS: 10 µM unless noted
This is part of a sample that, as a whole, favours compounds with a hit. Of some 83,000 tested, about 20% had one in any assay.
Note to self: growth under 60% means T, ties and anything higher get F.

MOLECULE | GROUP
COC(=O)/C=C1/SC(=Nc2ccc([N+](=O)[O-])cc2)N(CCc2c[nH]c3ccc(O)cc23)C1=O | F
Cc1nc2c(c(=O)[nH]1)C(c1ccccc1)c1ccc3ccccc3c1O2 (centres undefined) | F
CN(Cc1cnc2nc(N)nc(N)c2n1)c1ccc(C(=O)NC(CCC(=O)O)C(=O)O)cc1Br (centres undefined) | T
NS(=O)(=O)c1ccc(C(=O)NN2C(=O)c3c(Br)c(Br)c(Br)c(Br)c3C2=O)cc1 | F
COc1ccc(-c2nn(-c3ccccc3)cc2/C=C/C(=O)NNC(=O)Nc2ccc(C)cc2)cc1 | F
COc1ccc(/C=C/C(c2cc(OC)c(OC)c(OC)c2)n2ccnc2)cc1O (centres undefined) | F
C=C(c1ccc(OC)c(/C=C/C(=O)c2ccc3c(c2)OCO3)c1)c1cc(OC)c(OC)c(OC)c1 | T
COc1ccc(/C=C/C(=O)c2cc3c(N)c(C(=O)Nc4cccc(Cl)c4C)sc3nc2C)cc1 | T
CCN(CC)c1ccc(/C=N/NC(=O)Cc2ccc(Nc3ccnc(C(F)(F)F)c3)cc2)c(O)c1 | T
CN(C)c1ccc(-c2ccc3c(c2)c(-c2ccccc2)nc(=O)n3C)cn1 | T
O=S1(=O)C=C(c2ccccc2)C(c2ccccc2)=C1 | T
CC1CCN(C(=S)SCC(=O)NC(=O)c2ccccc2)CC1 | F
Oc1c(CN2CCOCC2)cc(COCc2ccccc2)c2cccnc12 | T
CC[C@]12C=CCN3CC[C@@]4(c5ccc(OC)cc5N(C)[C@H]4[C@@](O)(C(=O)OC)[C@@H]1OC(=O)CCC[P+](c1ccccc1)(c1ccccc1)c1ccccc1)[C@@H]32 | T
N#Cc1c(Nc2ccc(N3CCOCC3)cc2)nc(SCC(=O)c2ccc(Br)cc2)nc1-c1ccccc1 | F
O=C1c2ccccc2C(=O)c2c1cc1c(c2[N+](=O)[O-])OCO1 | T
N#CC1CCc2c(c(-c3ccc4nc(N)sc4c3)nc3ccc4[nH]ncc4c23)C1 (centres undefined) | T

* * *

The reader will find reported growth values listed item by item below.
Tested on: OVCAR-5 ovarian
MEASUREMENT PROTOCOL: NCI-60 one-dose screen, 48 h (100 = growth as untreated, 0 = no growth, -100 = all killed)
REPORTED CONDITIONS: 10 µM unless noted
This is part of a sample that, as a whole, favours compounds with a hit. Of some 83,000 tested, about 20% had one in any assay.
READOUT KIND: growth (%)

COMPOUND | STUDY SYSTEM | RESULT UNIT | TEST VALUE
Clc1c(Cl)[n+](Cc2ccc3ccccc3c2)cn1Cc1ccc2ccccc2c1 | OVCAR-5 ovarian | % | 54.9
Cc1ccc2nc(/C(C#N)=C(/CCCO)NC(Cc3ccccc3)C(=O)OCc3ccccc3)[nH]c(=O)c2c1 (centres undefined) | OVCAR-5 ovarian | % | 89.2
CSC1=Nc2c(c(C)c(-c3ccccc3)n2CCCC(=O)O)C2=NC(=O)C[C@H](C)N12 | OVCAR-5 ovarian | % | 107
O=c1ccc(=O)n(-c2nc(-c3ccc([N+](=O)[O-])cc3)cs2)[nH]1 | OVCAR-5 ovarian | % | 102
O=C(CSc1nnc(-c2cc(-c3ccccc3)nc3ccccc23)n1-c1ccccc1)Nc1ccc(C(=O)/C=C/c2ccc(Cl)cc2)cc1 | OVCAR-5 ovarian | % | 90.1
CN(C)CCCC1(c2ccc(F)cc2)OCc2cc(-c3cc4ccccc4s3)ccc21 (centres undefined) | OVCAR-5 ovarian | % | 55.8
Cc1c2ccncc2c(C)c2c1c1cc(CO)ccc1n2C | OVCAR-5 ovarian | % | -15.8
COc1ccc(/C=C/c2c(C(=O)/C=C/c3ccccc3)c(C)nc3ccccc23)cc1 | OVCAR-5 ovarian | % | -29.3
CC(=O)Oc1ccc(OC(C)=O)c2ccccc12 | OVCAR-5 ovarian | % | 98.4
